Data origin, for the record: patent US20050214285A1

# System: PTmAb0011
# Assay: Phage display ranking of peptide ligands for PTmAb0011
# Format: binding, mouse
# Details: primary phage display biopannings (Table 7)
No end group written: not given here.
Classify: True when Rank (ECL) PTmAb0011 is strictly less than 30; False when Rank (ECL) PTmAb0011 is not.

query: Quick check: does QCVRDGTRKVCM [EED33] have Rank (ECL) PTmAb0011 under 30?
result: True

query: Can you check MCQGWEIVSECW [EED57] next?
result: True

query: And ECNQNLSGSLRHVDLNC [EEC40] ?
result: False

query: Let us now turn to HCEEPEYSPATRVFCGR [EEC51/48/53]
result: False

query: // query: GCPMWPQPDDEC [EED132]
result: True

query: And then YCPKYPLEGDCLLDNDY [EEC116] , what is it?
result: True

query: Then this sequence: RCEQGALRCVGE [EED41/56]
result: True

query: And then KCPTYPKPNDRCLWPVP [EEC135] , what is it?
result: True

query: Please give the result for TCLVDRQESDVC [EED50] too.
result: True

query: What about DCVVDGDRLVCL [EED34/104] ?
result: True

query: Another: ACFSRNGQVTDVPHSCY [EEC41]
result: False

query: Repeat for the following sequence: DCDWINPPDPPHFWKDT [EEC2/23/44/132]
result: False

query: And what about the sequence HCQQVFFPQDYLWCQRG [EEC36] ?
result: False

query: Entry NCNDNPMLDCMPAWSS [EEC5] please
result: True

query: Record: SCAPSGDCGYKG [EED18/47/48]
result: False

query: Another sequence to look at: NCQDQMLREDAGCWSKI [EEC40A]
result: False

query: Entry to check: TCGQSELRCASLETHHV [EEC55]
result: True

* * *

# Tgt: PTmAb0011
# Assay: BIAcore affinity to PTmAb0011
# Assay type: binding, mouse
# Details: read-out: PTmAb BIAcore KD^Rel (μM) PTmAb0011
No end group written: not given here.
Parameter measured: Kd

query: Record request: Kd value, item GAMTAGQLSDLP [ESB25]
result: > 1000 µM

query: // query: VAGGQVVDRELK [ESB10/38]
result: > 1000 µM

query: Now consider KAGEQAMDMELR [ESB8] and answer again.
result: > 1000 µM

* * *

# Test system: PTmAb0005
# Assay: Phage display ranking of peptide ligands for PTmAb0005
# Assay type: binding
# Details: IgEC67-8 mutants (Table 9)
Parameter measured: Rel. Rank A
Output spec: single numeric token, no unit.

query: May I ask what Rel. Rank A has been recorded for ADGAECFINRQMADLELCGREAAEA [Peptide 4-4, IgEC67-8 mutant clone] ?
result: 0.69

query: Also, ADGAGCFINKQMSDFELCPREAGEA [Peptide 2-13, IgEC67-8 mutant clone] please.
result: 1.56

query: What would you report for ADGAGCFKNKQMVDSELCARQAAEA [Peptide 1-16, IgEC67-8 mutant clone] ?
result: 1.14

query: How about this sequence: ADGAGCFIEKQMADMELCQRETAEA [Peptide 1-1, IgEC67-8 mutant clone]
result: 1.04

query: Queued: ADGAGCFINKQMADLELCPREAAEA [2-8,1-13,4-11,1-14, IgEC67-8 sub-library clone]
result: 1.00

query: Also, ADGAGCSIHTQMADWERCLREGAEA [6-12,5-8] please.
result: 0.93

query: Similarly, ADGAGCFIDKQMADLELCPRAAAEA [1-9,2-5, IgEC67-8 mutant clone] ?
result: 1.21

query: Proceed to ADGAGCFISPQLADWKRCMREAAEA [6-9,5-1,6-2,6-8,6-4]
result: 1.53

query: Here is the next sequence: ADGAGCFQNKQMADLELCPREAAEA [Peptide 1-5, IgEC67-8 mutant clone]
result: 1.13

query: Queued: ADGAGCFINKQMADSELCPAAAAEA [Peptide 1-10, IgEC67-8 mutant clone]
result: 1.10

query: Same read-out for ADGAGCFINKQMADLELCPREGAEA [1-4,1-2,1-12, IgEC67-8 mutant clone] ?
result: 1.37

query: ADGAGCFINKQMADLELCPSQAAEA [Peptide 4-9, IgEC67-8 mutant clone] , same question.
result: 1.38

query: Same for ADGAGCFINKQMADLELCPRQAAEA [3-1,3-9,3-10, IgEC67-8 mutant clone]
result: 1.54

query: ADGAGCFINNQMADLELCPREAAEA [Peptide 5-2, IgEC67-8 mutant clone] , same question.
result: 1.04

query: Also need ADGAGCFINRQMADPELCPREAAEA [Peptide 5-11, IgEC67-8 mutant clone] , thanks.
result: 1.09

query: Another sequence: ADGAECFINKQRADLELCPGEAAEA [4-2,4-3, IgEC67-8 mutant clone]
result: 1.11

query: Same question, ADGAGCFINRQLADMELCSRGAAEA [2-11,2-4,2-10,2-7, IgEC67-8 mutant clone] this time
result: 0.79

query: ADGAGCFINNQMADLELCPRGGAEA [Peptide 1-11, IgEC67-8 mutant clone] ?
result: 1.45

query: Cool, now ADGAGCSIHRQMADWERCLREGAEA [Peptide 6-10]
result: 0.91

query: Now consider ADGAGCFIKKQMADLELCPREAWEA [Peptide 4-1, IgEC67-8 mutant clone] .
result: 1.24

query: // query: ADGAGCFINKQMADLELCRREAGEA [2-9,2-6, IgEC67-8 mutant clone]
result: 1.19

query: Please give the result for ADGAGCFINMQMADQELCPRAAAEA [Peptide 1-3, IgEC67-8 mutant clone] too.
result: 1.73

query: Do the same for ADGAGCFINKQMADLELCPARAAEA [Peptide 1-7, IgEC67-8 mutant clone] please
result: 0.91
